- Test system: Malme-3M
- Protocol: NCI tumour cell line growth inhibition, 48 h
Calls of active or inactive are those of the source. Rule as the data show it: active = GI50 up to about 1.1 µM and inactive = higher.
Value kind: GI50

O=S(=O)(O)c1ccc2c(/N=N/c3ccc(S(=O)(=O)O)c4ccccc34)c(O)c(S(=O)(=O)O)cc2c1 :: > 100 µM (inactive)
COc1ccc(CN(CCN(C)C)c2ccccn2)cc1.Cn1c(=O)c2[nH]c(Br)nc2n(C)c1=O :: > 100 µM (inactive)
CCNc1cc2c(cc1O)CC[C@@H]1[C@@H]2CC[C@]2(C)[C@@H](O)CC[C@@H]12 :: 3.75 µM (inactive)

Moving on to another compound below.
Task: Bench note: what GI50 did `O=S(=O)(O)c1cc(/N=N/c2c(O)ccc3ccccc23)ccc1/C=C/c1ccc(/N=N/c2c(O)ccc3ccccc23)cc1S(=O)(=O)O` show?
Output: 26.9 µM (inactive)
